// reported Activity (%) po for each item listed
test system: ANKA strain of P. berghei; assay: single dose STI in vivo screen in infected mice; design: species or system Plasmodium berghei; settings: percent reduction in parasitemia day 3 post-infection; single 10 mg/kg po in 3% ethanol and 7% Tween 80; mice; 10 mg/kg
Just the number plus its unit, please.

{"Compound": "c1cn(C[C@H]2CC[C@]3(CC2)OOC2(O3)C3CC4CC(C3)CC2C4)cn1 (some centres unmarked) [OZ145]", "Activity (%) po": "99.82%"}
{"Compound": "c1cn(C[C@H]2CC[C@]3(CC2)OOC2(O3)C3CC4CC(C3)CC2C4)cn1 (some centres unmarked) [OZ179]", "Activity (%) po": "99.91%"}
{"Compound": "CC1(C)COC(c2ccc([C@H]3CC[C@]4(CC3)OOC3(O4)C4CC5CC(C4)CC3C5)cc2)=N1 (some centres unmarked) [OZ154]", "Activity (%) po": "99.74%"}
{"Compound": "NC[C@H]1CC[C@]2(CC1)OOC1(O2)C2CC3CC(C2)CC1C3 (some centres unmarked) [OZ163]", "Activity (%) po": "99.90%"}

We now examine a further compound.
Task: Returns the measured Activity (%) po for the input compound. Input: CC1(C)COC(c2ccc([C@H]3CC[C@]4(CC3)OOC3(O4)C4CC5CC(C4)CC3C5)cc2)=N1 (some centres unmarked) [OZ180]
Result: 99.91%

* * *

test system: P. berghei ANKA strain; assay: prophylactic activity, single 100 mg/kg po dose before infection; assay type: in vivo, Plasmodium berghei; settings: single 100 mg/kg po 72 h before infection, reduction of parasitemia day 3 post-infection
Recorded endpoint: Prophylactic Activity (%)
Please respond with the number in % and leave the unit unwritten.

The cases that follow already have their Prophylactic Activity (%) on record.
{"Molecule": "CS(=O)(=O)O.NCC1CCC2(CC1)OOC1(O2)C2CC3CC(C2)CC1C3 (stereo not drawn)", "Unit tag": "%", "Prophylactic Activity (%)": 99.92}
{"Molecule": "Cc1ccc(S(=O)(=O)O)cc1.O=C(CC1CCC2(CC1)OOC1(O2)C2CC3CC(C2)CC1C3)N1CCNCC1 (stereo not drawn)", "Unit tag": "%", "Prophylactic Activity (%)": 14}
{"Molecule": "OC(c1cc(C(F)(F)F)nc2c(C(F)(F)F)cccc12)C1CCCCN1 (stereo not drawn) [MFQ, mefloquine, reference compound]", "Unit tag": "%", "Prophylactic Activity (%)": 99.97}

Task: Which Prophylactic Activity (%) is listed for CC(C)(N)C(=O)NCC1CCC2(CC1)OOC1(O2)C2CC3CC(C2)CC1C3 (stereo not drawn) ?
Result: 8

Task: Please report the recorded Prophylactic Activity (%) for CS(=O)(=O)O.NCC(=O)NCC1CCC2(CC1)OOC1(O2)C2CC3CC(C2)CC1C3 (stereo not drawn) .
Result: 99.89

Task: State the recorded Prophylactic Activity (%) for this entry: CC(C)(N)CNC(=O)CC1CCC2(CC1)OOC1(O2)C2CC3CC(C2)CC1C3.Cc1ccc(S(=O)(=O)O)cc1 (stereo not drawn)
Result: 9

* * *

tested on: ANKA strain of P. berghei; experiment: single dose STI in vivo screen in infected mice; set-up: species or system Plasmodium berghei; settings: single 10 mg/kg sc in 3% ethanol and 7% Tween 80; untreated control 5.6 ± 0.3
Decide by Survival (days) sc: equal to or exceeding 7 days means Satisfied, less means Not satisfied.

Sample answers from the record:
{"Compound": "CC(=O)N1CCC2(CC1)OOC1(O2)C2CC3CC(C2)CC1C3 (stereo not drawn)", "Class assignment": "Satisfied"}
{"Compound": "CCOC(=O)c1ccc(OC[C@H]2CC[C@]3(CC2)OOC2(O3)C3CC4CC(C3)CC2C4)cc1 (stereo partly drawn)", "Class assignment": "Not satisfied"}
{"Compound": "CC1(C)CC(NC2CCC3(CC2)OOC2(O3)C3CC4CC(C3)CC2C4)CC(C)(C)N1 (stereo not drawn)", "Class assignment": "Satisfied"}

Task: Could you please find out whether CS(=O)(=O)N1CCC2(CC1)OOC1(O2)C2CC3CC(C2)CC1C3 (stereo not drawn) has Survival (days) sc that meets 7 days or exceeds it?
Result: Satisfied

Task: Hi, just wondering whether ON=C1CCC2(CC1)OOC1(O2)C2CC3CC(C2)CC1C3 (stereo not drawn) shows Survival (days) sc of 7 days or higher.
Result: Satisfied

* * *

test system: ANKA strain of P. berghei; assay: single dose STI in vivo screen in infected mice; parameters: species or system Plasmodium berghei; settings: single 10 mg/kg sc in 3% ethanol and 7% Tween 80; untreated control 5.6 ± 0.3
Recorded endpoint: Survival (days) sc
Please state the figure in days; there is no need to write the unit.

Check out these entries, answers already filled in.
{"Compound": "CN1CCN(C(=O)NC[C@H]2CC[C@]3(CC2)OOC2(O3)C3CC4CC(C3)CC2C4)CC1 (stereo partly drawn)", "Survival (days) sc": 9.3}
{"Compound": "O=C1c2ccccc2S(=O)(=O)N1C[C@H]1CC[C@]2(CC1)OOC1(O2)C2CC3CC(C2)CC1C3 (stereo partly drawn)", "Survival (days) sc": 8.0}
{"Compound": "COCC(=O)N1CCC2(CC1)OOC1(O2)C2CC3CC(C2)CC1C3 (stereo not drawn)", "Survival (days) sc": 7.3}
{"Compound": "O=C(NN=C1CCC2(CC1)OOC1(O2)C2CC3CC(C2)CC1C3)Nc1ccccc1 (stereo not drawn)", "Survival (days) sc": 9.0}

Task: Sample COCC(=O)N(C1CCCCC1)C1CCC2(CC1)OOC1(O2)C2CC3CC(C2)CC1C3 (stereo not drawn) — what was its Survival (days) sc?
Result: 10.3

Task: What value of Survival (days) sc has been reported for the following compound? CON=C1CCC2(CC1)OOC1(O2)C2CC3CC(C2)CC1C3 (stereo not drawn)
Result: 8.2

* * *

system: ANKA strain of P. berghei; experiment: single dose STI in vivo screen in infected mice; parameters: species or system Plasmodium berghei; settings: percent reduction in parasitemia day 3 post-infection; single 10 mg/kg sc in 3% ethanol and 7% Tween 80; mice; 10 mg/kg
Listed here are compounds together with their documented Activity (%) sc.
State the answer as a number, implicitly in %.

See these solved cases before continuing.
{"Compound": "CC1(C)COC(c2ccc([C@H]3CC[C@]4(CC3)OOC3(O4)C4CC5CC(C4)CC3C5)cc2)=N1 (stereo partly drawn) [OZ154]", "Unit tag": "%", "Activity (%) sc": 59}
{"Compound": "O=C(O)C1CCC2(CC1)OOC1(O2)C2CC3CC(C2)CC1C3 (stereo not drawn) [OZ71]", "Unit tag": "%", "Activity (%) sc": 97}

Let us move to another entry and its Activity (%) sc.
Task: So what's the measured Activity (%) sc for this one? c1cn(C[C@H]2CC[C@]3(CC2)OOC2(O3)C3CC4CC(C3)CC2C4)cn1 (stereo partly drawn) [OZ179]
Result: 99.91

* * *

Below, each of the compounds is paired with its reported Activity (%) sc value.
test system: ANKA strain of P. berghei; test: single dose STI in vivo screen in infected mice; parameters: species or system Plasmodium berghei; details: percent reduction in parasitemia day 3 post-infection; single 10 mg/kg sc in 3% ethanol and 7% Tween 80; mice; 10 mg/kg
State the answer as a number, implicitly in %.

Worked cases, Activity (%) sc given:
{"Compound": "OC12CC3CC(C1)C1(OOC4(CCC5(CC4)OCCO5)O1)C(C3)C2 (centres unmarked) [OZ152]", "Result": 22}
{"Compound": "OC12CC3CC(C1)C1(OOC4(CCC5(CC4)OCCO5)O1)C(C3)C2 (centres unmarked) [OZ153]", "Result": 20}
{"Compound": "O=C(O)C1CCC2(CC1)OOC1(O2)C2CC3CC(C2)CC1C3 (centres unmarked) [OZ72]", "Result": 95}

Task: Please look up its Activity (%) sc: c1cn(C[C@H]2CC[C@]3(CC2)OOC2(O3)C3CC4CC(C3)CC2C4)cn1 (some centres unmarked) [OZ145]
Result: 99.87

Task: Need Activity (%) sc of CC1(C)COC(c2ccc([C@H]3CC[C@]4(CC3)OOC3(O4)C4CC5CC(C4)CC3C5)cc2)=N1 (some centres unmarked) [OZ180] , thanks.
Result: 65

* * *

Overview of reported Survival (days) sc across a group of compounds:
test system: ANKA strain of P. berghei; test: single dose STI in vivo screen in infected mice; set-up: species or system Plasmodium berghei; conditions: single 10 mg/kg sc in 3% ethanol and 7% Tween 80; untreated control 5.6 ± 0.3
Numbers only here, please. The scale is days.

Example entries and their recorded answers appear below.
{"Compound": "CC(=O)NC[C@H]1CC[C@]2(CC1)OOC1(O2)C2CC3CC(C2)CC1C3 (some centres unmarked)", "Study target": "ANKA strain of P. berghei", "Unit tag": "days", "Survival (days) sc": 10.0}
{"Compound": "CCOC(=O)CCC1CCCCC12OOC1(CCCCC1)O2 (centres unmarked)", "Study target": "ANKA strain of P. berghei", "Unit tag": "days", "Survival (days) sc": 5.7}
{"Compound": "O=C(O)c1nccnc1C(=O)N1CCC2(CC1)OOC1(O2)C2CC3CC(C2)CC1C3 (centres unmarked)", "Study target": "ANKA strain of P. berghei", "Unit tag": "days", "Survival (days) sc": 6.3}

Task: Name the reported Survival (days) sc value associated with the compound CS(=O)(=O)c1ccc([C@H]2CC[C@]3(CC2)OOC2(O3)C3CC4CC(C3)CC2C4)cc1 (some centres unmarked)
Result: 10.0

Task: Tell me the measured Survival (days) sc of CCOC(=O)N1C2CCC1CC1(C2)OOC2(O1)C1CC3CC(C1)CC2C3 (centres unmarked) , please.
Result: 7.7

From: patent US6906205B2
